Hello, the source for this data is PubChem BioAssay (NCI), in case you need it.

# Tested on: U251 CNS
# ASSAY_METHOD_TEXT: NCI-60 one-dose screen, 48 h (100 = growth as untreated, 0 = no growth, -100 = all killed)
# TEST_CONTEXT: 10 µM unless noted
About 83,000 compounds went through this panel and 20% of them were active in at least one assay; those are over-represented in the sample as a whole.
RECORDED_METRIC: growth (%)
Note: unit % is implicit; provide only the numeric part.

Check out these entries, answers already filled in.
[
  {
    "COMPOUND": "OCCNc1nc(Nc2ccc(C3=NN(c4cc(Cl)cc(Cl)c4)C(c4ccc(C(F)(F)F)cc4)C3)cc2)nc(N2CCOCC2)n1 (configuration not stated)",
    "RECORDED_METRIC": "growth",
    "UNIT": "%",
    "VALUE": 63.4
  },
  {
    "COMPOUND": "Cc1nc2ccccc2c(/C=C/c2ccc(F)cc2)c1C(N)=O",
    "RECORDED_METRIC": "growth",
    "UNIT": "%",
    "VALUE": 98.1
  },
  {
    "COMPOUND": "O=c1oc2ccc(Br)cc2c(=O)n1-c1ccc(Br)cc1F",
    "RECORDED_METRIC": "growth",
    "UNIT": "%",
    "VALUE": -5.99
  },
  {
    "COMPOUND": "COc1ccc(C2=Nn3c(NN)nnc3SC2)cc1",
    "RECORDED_METRIC": "growth",
    "UNIT": "%",
    "VALUE": 99.7
  },
  {
    "COMPOUND": "COc1cc(CNC(=O)c2ccsc2Nc2ccnc(C(F)(F)F)c2)ccc1O",
    "RECORDED_METRIC": "growth",
    "UNIT": "%",
    "VALUE": 95.4
  },
  {
    "COMPOUND": "O=C(Nc1ccc(Cl)cc1F)c1cc(I)ccc1O",
    "RECORDED_METRIC": "growth",
    "UNIT": "%",
    "VALUE": 9.91
  },
  {
    "COMPOUND": "Clc1ncccc1Nc1ccc2nnc(-c3ccncc3)n2n1",
    "RECORDED_METRIC": "growth",
    "UNIT": "%",
    "VALUE": 101
  },
  {
    "COMPOUND": "Clc1ccc(Oc2ccc(Nc3ncnc4onc(-c5ccccc5)c34)cc2)c(Cl)c1",
    "RECORDED_METRIC": "growth",
    "UNIT": "%",
    "VALUE": 102
  }
]

Value of measured growth for the entry Nc1nc2c(ncn2[C@@H]2O[C@H](CS)[C@@H](O)[C@H]2O)c(=O)[nH]1 : 99.3

Value of measured growth for the entry FC(F)(F)c1cccc(CNC2CCN(CCc3ccccc3)CC2)c1 : 77.4

Value of measured growth for the entry C=C[C@@H]1CCC/C=C/[C@@H]2C[C@H](O)C[C@H]2[C@H](O)/C=C/C(=O)O1 : 25.3

Value of measured growth for the entry COc1ccc(-n2c(C(O)c3ccccc3)nn(CN3CCOCC3)c2=S)cc1 (configuration not stated) : 95.2

Value of measured growth for the entry CCCN1C(=O)N(CCC)C2C1NN=c1s/c(=C3\C(=O)N(C(C)C)c4ccccc43)c(=O)n12 (configuration not stated) : 48.4
